Source of measurements: patent US11566007B2

This section presents molecules with their documented IC50 values.
- System name: K-Ras G12C (Homo sapiens (Human), UniProt P01116+P62937, G12C)
- Sequence (P01116-2 other isoform, or with tags, fused parts or gaps G12C): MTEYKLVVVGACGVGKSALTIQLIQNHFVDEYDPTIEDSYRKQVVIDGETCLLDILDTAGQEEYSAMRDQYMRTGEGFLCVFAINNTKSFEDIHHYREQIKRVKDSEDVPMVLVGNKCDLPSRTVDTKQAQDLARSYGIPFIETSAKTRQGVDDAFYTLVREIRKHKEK
- Sequence (P62937 whole entry): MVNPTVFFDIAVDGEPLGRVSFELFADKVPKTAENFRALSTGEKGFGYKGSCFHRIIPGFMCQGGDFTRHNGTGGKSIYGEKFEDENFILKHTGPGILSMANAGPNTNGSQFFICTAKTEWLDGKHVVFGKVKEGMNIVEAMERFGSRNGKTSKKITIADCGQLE
- Test details: Ras-Raf (BRAF RBD) disruption / FRET / MOA assay, KRAS G12C
- Format: biochemical
- Test parameters: KRAS G12C; Ras-Raf disruption/FRET/MOA assay; read-out: IC50* KRAS G12C FRET data

Molecule	IC50
CCn1c(-c2cccnc2[C@H](C)OC)c2c3cc(ccc31)C1CCCN(C1)C[C@H](NC(=O)[C@@H](COC1CN(C(=O)C#CC(C)(C)N(C)C)C1)C(C)C)C(=O)N1CCC[C@H](N1)C(=O)OCC(C)(C)C2	10 to 100 nM
C=CC(=O)N(C)C1CN(C(=O)N(C)[C@H](C(=O)N[C@H]2Cc3nc(cs3)-c3ccc4c(c3)c(c(-c3cccnc3[C@H](C)OC)n4CC)CC(C)(C)COC(=O)[C@@H]3CCCN(N3)C2=O)C(C)C)C1 (atropisomer, axis not shown)	10 to 100 nM
CCn1c(-c2ccccc2CN(C)C)c2c3cc(ccc31)-c1cc(O)cc(c1)C[C@H](NC(=O)[C@H](C(C)C)N(C)C(=O)c1ncc(NC(=O)/C=C/CN(C)C)n1C)C(=O)N1CCC[C@H](N1)C(=O)OCC(C)(C)C2	< 10 nM
C=CC(=O)N1C[C@@H]2[C@H](C1)[C@@H]2C(=O)N(C)[C@H](C(=O)N[C@H]1Cc2cc(O)cc(c2)-c2ccc3c(c2)c(c(-c2cccnc2[C@H](C)OC)n3CC)CC(C)(C)COC(=O)[C@@H]2CCCN(N2)C1=O)C(C)C (atropisomer, axis not shown)	10 to 100 nM
CCn1c(-c2cccnc2[C@H](C)OC)c2c3cc(ccc31)-c1cc(O)cc(c1)C[C@H](NC(=O)[C@H](C(C)C)N(C)C(=O)[C@H]1CCN(C(=O)C#CCOC)C1)C(=O)N1CCC[C@H](N1)C(=O)OCC(C)(C)C2	< 10 nM
CCn1c(-c2cccnc2COC)c2c3cc(ccc31)-c1cc(C)cc(c1)C[C@H](NC(=O)[C@H](C(C)C)N(C)C(=O)[C@H]1CCN(C(=O)C#CCN(C)C)C1)C(=O)N1CCC[C@H](N1)C(=O)OCC(C)(C)C2 [Example A157]	< 10 nM
CCn1c(-c2cnccc2C(C)C)c2c3cc(ccc31)-c1cc(O)cc(c1)C[C@H](NC(=O)[C@H](C(C)C)N(C)C(=O)[C@H]1CCN(C(=O)C#CCN(C)C)C1)C(=O)N1CCC[C@H](N1)C(=O)OCC(C)(C)C2	< 10 nM
C=CC(=O)N1CC(OCC(C(=O)N[C@H]2Cc3cccc(c3)-c3ccc4c(c3)c(c(-c3cccnc3[C@H](C)OC)n4CC(F)(F)F)CC(C)(C)COC(=O)[C@@H]3CCCN(N3)C2=O)C(C)C)C1 (mixture of isomers)	1000 to 10000 nM

IC50 reading for C=CC(=O)N1CC[C@H](C(=O)N(C)[C@H](C(=O)N[C@H]2Cc3cccc(c3)-c3ccc4c(c3)c(c(-c3cc(CN(C)C)cnc3[C@H](C)OC)n4CC)CC(C)(C)COC(=O)[C@@H]3CCCN(N3)C2=O)C(C)C)C1 [Example A523] : 1000 to 10000 nM

IC50 reading for C=CC(=O)N1CCN(C(=O)N(C)[C@H](C(=O)N[C@H]2Cc3cc(O)cc(c3)-c3ccc4c(c3)c(c(-c3ccccc3CCOC)n4CC)CC(C)(C)COC(=O)[C@@H]3CCCN(N3)C2=O)C(C)C)C[C@@H]1COC : 100 to 1000 nM

IC50 reading for C=CC(=O)N1C[C@@H]2CN(C(=O)N(C)[C@H](C(=O)N[C@H]3Cc4nc(cs4)-c4ccc5c(c4)c(c(-c4cccnc4[C@H](C)OC)n5CC)CC(C)(C)COC(=O)[C@@H]4CCCN(N4)C3=O)C(C)C)[C@@H]2C1 (atropisomer, axis not shown) : 100 to 1000 nM
